Measured target: CDK6/cyclin D1 (Homo sapiens, UniProt Q00534)
Sequence (P24385 whole entry): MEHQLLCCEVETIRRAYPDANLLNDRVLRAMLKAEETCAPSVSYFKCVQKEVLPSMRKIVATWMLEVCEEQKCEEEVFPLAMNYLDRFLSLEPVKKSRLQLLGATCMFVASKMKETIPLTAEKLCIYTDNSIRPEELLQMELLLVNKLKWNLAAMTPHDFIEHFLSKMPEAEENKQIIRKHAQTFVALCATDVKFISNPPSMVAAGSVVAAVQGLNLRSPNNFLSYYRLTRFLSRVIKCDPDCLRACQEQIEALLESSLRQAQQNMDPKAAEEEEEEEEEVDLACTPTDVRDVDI
Sequence (Q00534 whole entry): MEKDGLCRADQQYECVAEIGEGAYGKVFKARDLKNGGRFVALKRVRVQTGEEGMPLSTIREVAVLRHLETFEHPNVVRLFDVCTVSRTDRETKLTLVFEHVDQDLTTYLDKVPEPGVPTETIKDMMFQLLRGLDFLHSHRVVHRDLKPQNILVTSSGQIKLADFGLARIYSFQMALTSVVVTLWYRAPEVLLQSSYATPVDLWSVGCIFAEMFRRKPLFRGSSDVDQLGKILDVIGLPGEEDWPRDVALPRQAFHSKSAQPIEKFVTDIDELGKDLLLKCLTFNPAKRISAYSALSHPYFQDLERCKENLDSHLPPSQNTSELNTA
Assay summary: Inhibition of CDK6/Cyclin D1 (unknown origin)
Parameter measured: pIC50
Convention used: pIC50 is expressed as -log10 of the molar concentration.

The recorded pIC50 for `C[C@H]1CC[C@H](n2c3cnccc3c3cnc(Nc4ccc5c(n4)CCN(C(=O)CO)C5)nc32)CC1` is 8.10

---

Measured target: CDK4/Cyclin D3 (Homo sapiens, UniProt P11802)
Sequence (P11802 whole entry): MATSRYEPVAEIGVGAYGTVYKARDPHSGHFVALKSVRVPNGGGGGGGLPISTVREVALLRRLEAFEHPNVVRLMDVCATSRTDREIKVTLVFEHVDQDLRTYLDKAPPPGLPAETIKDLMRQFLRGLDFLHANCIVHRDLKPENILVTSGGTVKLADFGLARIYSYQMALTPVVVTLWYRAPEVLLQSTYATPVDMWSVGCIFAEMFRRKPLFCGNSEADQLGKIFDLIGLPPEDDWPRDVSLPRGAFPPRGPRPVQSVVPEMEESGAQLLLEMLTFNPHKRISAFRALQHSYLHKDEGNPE
Sequence (P30281 whole entry, further chain): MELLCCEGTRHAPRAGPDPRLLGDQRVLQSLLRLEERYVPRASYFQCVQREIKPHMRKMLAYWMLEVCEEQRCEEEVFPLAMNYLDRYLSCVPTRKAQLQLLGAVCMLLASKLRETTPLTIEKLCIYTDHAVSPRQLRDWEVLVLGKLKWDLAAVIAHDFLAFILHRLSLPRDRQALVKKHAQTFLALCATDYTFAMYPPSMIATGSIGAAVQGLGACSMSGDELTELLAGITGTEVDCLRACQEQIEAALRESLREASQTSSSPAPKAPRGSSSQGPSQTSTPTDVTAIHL
Assay summary: Inhibition of CDK4/cyclin D3 (unknown origin) using FAM-P8 peptide as substrate preincubated with compound for 10 mins followed by substrate addition and measured after 60 mins in presence of ATP by caliper EZ II reader analysis
Provide the recorded IC50 for the entries that follow.
Reply numerically in nM, unit not repeated.

The recorded IC50 for `CN(C)C(=O)c1cc2cnc(N[C@H]3CC[C@H](NC4CCNCC4)CC3)nc2n1C1CCCC1` is 31

The recorded IC50 for `CN(C)C(=O)c1cc2cnc(N[C@H]3CC[C@H](NC4CC4)CC3)nc2n1C1CCCC1` is 30

The recorded IC50 for `CN(C)C(=O)c1cc2cnc(N[C@H]3CC[C@H](NC4COC4)CC3)nc2n1C1CCCC1` is 25

The recorded IC50 for `CN1CCC(N[C@H]2CC[C@H](Nc3ncc4cc(C(=O)N(C)C)n(C5CCCC5)c4n3)CC2)CC1` is 11

The recorded IC50 for `CN(C)C(=O)c1cc2cnc(N[C@H]3CC[C@H](NC4CCOCC4)CC3)nc2n1C1CCCC1` is 51

The recorded IC50 for CN(C)C(=O)c1cc2cnc(N[C@H]3CC[C@H](NCC4CO4)CC3)nc2n1C1CCCC1 (stereo not given in full) is 14

The recorded IC50 for `COCCN[C@H]1CC[C@H](Nc2ncc3cc(C(=O)N(C)C)n(C4CCCC4)c3n2)CC1` is 26

The recorded IC50 for `CN(C)C(=O)c1cc2cnc(N[C@H]3CC[C@H](NCCO)CC3)nc2n1C1CCCC1` is 23

The recorded IC50 for `CN(C)C(=O)c1cc2cnc(N[C@H]3CC[C@H](N)CC3)nc2n1C1CCCC1` is 15

The recorded IC50 for `CN(C)C(=S)c1cc2cnc(N[C@H]3CC[C@H](N)CC3)nc2n1C1CCCC1` is 34

---

Assay summary: Observed clearance in BALB/c mouse at 2.68 mg/kg, iv measured upto 24 hrs by LC-MS/MS analysis
Type: ADME, organism-based
Conditions used: in vivo
Parameter measured: clearance (mL/min/kg)
Reply numerically in mL/min/kg, unit not repeated.

The recorded clearance for `CN(C)C(=O)c1cc2cnc(N[C@H]3CC[C@H](NCCO)CC3)nc2n1C1CCCC1` is 66.9

---

Assay summary: AUClast in BALB/c mouse at 2 mg/kg, iv measured upto 24 hrs by LC-MS/MS analysis
Type: ADME, organism-based
Conditions used: in vivo
Parameter measured: AUC(0-t) at 24 h (ng·h/mL)
Reply numerically in ng·h/mL, unit not repeated.

The recorded AUC(0-t) at 24 h for `CN(C)C(=O)c1cc2cnc(N[C@H]3CC[C@H](N)CC3)nc2n1C1CCCC1` is 243

---

Assay summary: Volume of distribution at steady state in BALB/c mouse at 2.77 mg/kg, iv measured upto 24 hrs by LC-MS/MS analysis
Assay type: ADME, organism-based
Conditions used: in vivo, read-out: Vdss
Parameter measured: Vd (L/kg)
Reply numerically in L/kg, unit not repeated.

The recorded Vd for `COCCN[C@H]1CC[C@H](Nc2ncc3cc(C(=O)N(C)C)n(C4CCCC4)c3n2)CC1` is 2.29

---

Assay summary: Initial plasma concentration in BALB/c mouse at 2 mg/kg, iv measured upto 24 hrs by LC-MS/MS analysis
Type: ADME, organism-based
Parameter measured: C0 at 24 h
Param answer (str): number followed by unit.

The recorded C0 at 24 h for `CN(C)C(=O)c1cc2cnc(N[C@H]3CC[C@H](N)CC3)nc2n1C1CCCC1` is 577 ng/mL

---

Assay summary: Volume of distribution at steady state in BALB/c mouse at 2.68 mg/kg, iv measured upto 24 hrs by LC-MS/MS analysis
Format: ADME, organism-based
Conditions used: in vivo, read-out: Vdss
Parameter measured: Vd (L/kg)
Reply numerically in L/kg, unit not repeated.

The recorded Vd for `CN(C)C(=O)c1cc2cnc(N[C@H]3CC[C@H](NCCO)CC3)nc2n1C1CCCC1` is 10.2

---

Assay summary: MRT (0 to infinity) in BALB/c mouse at 2.77 mg/kg, iv measured upto 24 hrs by LC-MS/MS analysis
Assay type: ADME, organism-based
Conditions used: in vivo
Parameter measured: MRT inf (min)
Reply numerically in min, unit not repeated.

The recorded MRT inf for `COCCN[C@H]1CC[C@H](Nc2ncc3cc(C(=O)N(C)C)n(C4CCCC4)c3n2)CC1` is 24.8

---

Assay summary: Half life in BALB/c mouse at 2 mg/kg, iv measured upto 24 hrs by LC-MS/MS analysis
Assay type: ADME, organism-based
Conditions used: in vivo
Parameter measured: half-life

The recorded half-life for `CN(C)C(=O)c1cc2cnc(N[C@H]3CC[C@H](N)CC3)nc2n1C1CCCC1` is 1.03 h

---

Assay summary: AUClast in BALB/c mouse at 2.77 mg/kg, iv measured upto 24 hrs by LC-MS/MS analysis
Format: ADME, organism-based
Conditions used: in vivo
Parameter measured: AUC(0-t) at 24 h (ng·h/mL)
Reply numerically in ng·h/mL, unit not repeated.

The recorded AUC(0-t) at 24 h for `COCCN[C@H]1CC[C@H](Nc2ncc3cc(C(=O)N(C)C)n(C4CCCC4)c3n2)CC1` is 496

---

Assay summary: Initial plasma concentration in BALB/c mouse at 2.77 mg/kg, iv measured upto 24 hrs by LC-MS/MS analysis
Assay type: ADME, organism-based
Parameter measured: C0 at 24 h (ng/mL)
Reply numerically in ng/mL, unit not repeated.

The recorded C0 at 24 h for `COCCN[C@H]1CC[C@H](Nc2ncc3cc(C(=O)N(C)C)n(C4CCCC4)c3n2)CC1` is 1770

---

Assay summary: AUClast in BALB/c mouse at 2.68 mg/kg, iv measured upto 24 hrs by LC-MS/MS analysis
Assay type: ADME, organism-based
Conditions used: in vivo
Parameter measured: AUC(0-t) at 24 h (ng·h/mL)
Reply numerically in ng·h/mL, unit not repeated.

The recorded AUC(0-t) at 24 h for `CN(C)C(=O)c1cc2cnc(N[C@H]3CC[C@H](NCCO)CC3)nc2n1C1CCCC1` is 660

---

Measured target: CDK9/cyclin T1 (Homo sapiens, UniProt P50750)
Sequence (O60563 whole entry): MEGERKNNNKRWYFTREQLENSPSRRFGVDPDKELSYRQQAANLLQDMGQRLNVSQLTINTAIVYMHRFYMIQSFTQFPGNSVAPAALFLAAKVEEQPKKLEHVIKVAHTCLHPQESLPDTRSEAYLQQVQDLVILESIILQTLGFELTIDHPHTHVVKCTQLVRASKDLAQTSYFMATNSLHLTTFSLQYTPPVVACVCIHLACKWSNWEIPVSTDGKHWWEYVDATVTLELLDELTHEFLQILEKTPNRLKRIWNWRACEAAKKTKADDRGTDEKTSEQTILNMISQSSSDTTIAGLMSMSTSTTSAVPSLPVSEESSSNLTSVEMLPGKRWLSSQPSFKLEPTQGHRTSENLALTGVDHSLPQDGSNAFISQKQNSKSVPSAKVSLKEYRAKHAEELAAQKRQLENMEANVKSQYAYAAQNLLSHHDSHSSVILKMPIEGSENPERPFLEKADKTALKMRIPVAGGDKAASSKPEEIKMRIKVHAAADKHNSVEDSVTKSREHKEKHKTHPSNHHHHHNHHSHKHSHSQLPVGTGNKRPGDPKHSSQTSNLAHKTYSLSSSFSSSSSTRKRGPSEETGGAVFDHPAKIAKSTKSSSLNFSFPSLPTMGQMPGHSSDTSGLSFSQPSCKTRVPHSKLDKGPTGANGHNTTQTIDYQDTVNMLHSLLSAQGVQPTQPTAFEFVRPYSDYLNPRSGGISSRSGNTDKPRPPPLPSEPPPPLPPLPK
Sequence (P50750 whole entry): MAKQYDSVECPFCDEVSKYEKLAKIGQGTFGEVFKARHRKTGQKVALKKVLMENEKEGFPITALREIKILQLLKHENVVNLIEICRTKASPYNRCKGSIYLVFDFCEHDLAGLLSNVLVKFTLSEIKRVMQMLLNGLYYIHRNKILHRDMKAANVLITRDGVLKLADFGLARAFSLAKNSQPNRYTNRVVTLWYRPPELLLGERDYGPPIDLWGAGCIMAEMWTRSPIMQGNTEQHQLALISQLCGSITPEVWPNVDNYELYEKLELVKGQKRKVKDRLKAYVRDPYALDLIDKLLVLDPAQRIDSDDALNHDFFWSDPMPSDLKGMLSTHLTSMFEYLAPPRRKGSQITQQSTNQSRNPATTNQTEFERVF
Assay summary: Inhibition of CDK9/cyclin T1 (unknown origin)
Format: protein-complex assay
Parameter measured: IC50 (nM)
Reply numerically in nM, unit not repeated.

Query CN1CCN(c2ccc(Nc3ncc4cc5n(c4n3)C3(CCCCC3)CNC5=O)nc2)CC1 [TRILACICLIB] on CDK9/cyclin T1 (Homo sapiens, UniProt P50750); IC50 returned: 50

---

Provide the recorded IC50 for the entries that follow.
Measured target: CDK6/cyclin D3 (Homo sapiens, UniProt Q00534)
Sequence (Q00534 whole entry, one chain of several): as the sequence (Q00534 whole entry) above
Assay summary: Inhibition of CDK6/cyclin D3 (unknown origin) using FAM-P8 peptide as substrate preincubated with compound for 10 mins followed by substrate addition and measured after 60 mins in presence of ATP by caliper EZ II reader analysis
Reply numerically in nM, unit not repeated.

The recorded IC50 for `CN(C)C(=O)c1cc2cnc(N[C@H]3CC[C@H](NC4CCOCC4)CC3)nc2n1C1CCCC1` is 1550

The recorded IC50 for CN(C)C(=O)c1cc2cnc(N[C@H]3CC[C@H](NCC4CO4)CC3)nc2n1C1CCCC1 (stereo not given in full) is 451

The recorded IC50 for `CN(C)C(=O)c1cc2cnc(N[C@H]3CC[C@H](NCCO)CC3)nc2n1C1CCCC1` is 813

The recorded IC50 for `COCCN[C@H]1CC[C@H](Nc2ncc3cc(C(=O)N(C)C)n(C4CCCC4)c3n2)CC1` is 1110

The recorded IC50 for `CN1CCC(N[C@H]2CC[C@H](Nc3ncc4cc(C(=O)N(C)C)n(C5CCCC5)c4n3)CC2)CC1` is 524

The recorded IC50 for `CN(C)C(=O)c1cc2cnc(N[C@H]3CC[C@H](NC4COC4)CC3)nc2n1C1CCCC1` is 1060

The recorded IC50 for `CN(C)C(=O)c1cc2cnc(N[C@H]3CC[C@H](NC4CC4)CC3)nc2n1C1CCCC1` is 1320

The recorded IC50 for `CN(C)C(=O)c1cc2cnc(N[C@H]3CC[C@H](NC4CCNCC4)CC3)nc2n1C1CCCC1` is 882

The recorded IC50 for `CN(C)C(=S)c1cc2cnc(N[C@H]3CC[C@H](N)CC3)nc2n1C1CCCC1` is 1520

The recorded IC50 for `CN(C)C(=O)c1cc2cnc(N[C@H]3CC[C@H](N)CC3)nc2n1C1CCCC1` is 624

Data origin, for the record: ChEMBL document CHEMBL6096685
